Source listed as ChEMBL document CHEMBL1177683.

Tested on: Mus musculus
Protocol summary: Antiedematogenic activity in Swiss mouse assessed as inhibition of capsaicin-induced ear edema at 100 umol/kg, po administered 40 mins before capsaicin challenge measured after 30 mins relative to control
Decide by inhibition in vivo at 100 µmol/kg: equal to or exceeding 40% means 1.0, less means 0.0.

Prompt line: Does the molecule `CC(C)(C)c1cc(/C=N/NC(=O)c2cnccn2)cc(C(C)(C)C)c1O` have recorded inhibition in vivo at 100 µmol/kg that is 40% or more?
Response line: 0.0

Prompt line: Does the molecule `O=C(N/N=C/c1ccc(C(F)(F)F)cc1)c1cnccn1` have recorded inhibition in vivo at 100 µmol/kg that is 40% or more?
Response line: 1.0

Prompt line: Does the molecule `O=C(N/N=C/c1ccc2ccccc2c1)c1cnccn1` have recorded inhibition in vivo at 100 µmol/kg that is 40% or more?
Response line: 0.0

Prompt line: Does the molecule `CC(C)c1ccc(/C=N/NC(=O)c2cnccn2)cc1` have recorded inhibition in vivo at 100 µmol/kg that is 40% or more?
Response line: 1.0

Prompt line: Does the molecule `O=C(N/N=C/c1ccc(-c2ccccc2)cc1)c1cnccn1` have recorded inhibition in vivo at 100 µmol/kg that is 40% or more?
Response line: 1.0

Prompt line: Does the molecule `Cc1ccc(-c2cc(C(F)(F)F)nn2-c2ccc(S(N)(=O)=O)cc2)cc1` have recorded inhibition in vivo at 100 µmol/kg that is 40% or more?
Response line: 1.0

Prompt line: Does the molecule `COc1ccc(/C=N/NC(=O)c2cnccn2)cc1O` have recorded inhibition in vivo at 100 µmol/kg that is 40% or more?
Response line: 0.0

Prompt line: Does the molecule `O=C(N/N=C/c1ccc(O)cc1)c1cnccn1` have recorded inhibition in vivo at 100 µmol/kg that is 40% or more?
Response line: 1.0

Prompt line: Does the molecule `COc1cc(/C=N/NC(=O)c2cnccn2)ccc1O` have recorded inhibition in vivo at 100 µmol/kg that is 40% or more?
Response line: 1.0

Prompt line: Does the molecule `O=C(N/N=C/c1cc(=O)c2ccccc2o1)c1cnccn1` have recorded inhibition in vivo at 100 µmol/kg that is 40% or more?
Response line: 1.0

Prompt line: Does the molecule `COc1ccc(/C=N/NC(=O)c2cnccn2)cc1OC` have recorded inhibition in vivo at 100 µmol/kg that is 40% or more?
Response line: 1.0

Prompt line: Does the molecule `O=C(N/N=C/c1ccc2c(c1)OCO2)c1cnccn1` have recorded inhibition in vivo at 100 µmol/kg that is 40% or more?
Response line: 1.0

----------
Answer each item with its documented inhibition in vivo at 100 µmol/kg.
System: Mus musculus
Protocol summary: Antiedematogenic activity in Swiss mouse assessed as inhibition of capsaicin-induced ear edema at 100 umol/kg, po administered 40 mins before capsaicin challenge measured after 30 mins relative to control
Write down the numeric answer in % and omit the unit.

Prompt line: Suppose we examine the compound `O=C(N/N=C/c1ccc(F)cc1)c1cnccn1` ; what inhibition in vivo at 100 µmol/kg value has been reported?
Response line: 33.1

Prompt line: Suppose we examine the compound `O=C(N/N=C/c1ccc([N+](=O)[O-])cc1)c1cnccn1` ; what inhibition in vivo at 100 µmol/kg value has been reported?
Response line: 41.9

Prompt line: Suppose we examine the compound `O=C(N/N=C/c1ccccc1O)c1cnccn1` ; what inhibition in vivo at 100 µmol/kg value has been reported?
Response line: 42

Prompt line: Suppose we examine the compound `O=C(N/N=C/c1c2ccccc2cc2ccccc12)c1cnccn1` ; what inhibition in vivo at 100 µmol/kg value has been reported?
Response line: 54.7

Prompt line: Suppose we examine the compound `O=C(N/N=C/c1ccccc1)c1cnccn1` ; what inhibition in vivo at 100 µmol/kg value has been reported?
Response line: 30.5

----------
System: Mus musculus
Protocol summary: Antiedematogenic activity in Swiss mouse assessed as inhibition of capsaicin-induced ear edema at 100 umol/kg, po administered 40 mins before capsaicin challenge measured after 30 mins relative to control
Outcome measure: inhibition in vivo at 100 µmol/kg (%)
Write down the numeric answer in % and omit the unit.

Prompt line: Suppose we examine the compound `O=C(N/N=C/c1ccccn1)c1cnccn1` ; what inhibition in vivo at 100 µmol/kg value has been reported?
Response line: 44.9

Prompt line: Suppose we examine the compound `COc1ccc2c(c1)c(CC(=O)O)c(C)n2C(=O)c1ccc(Cl)cc1` ; what inhibition in vivo at 100 µmol/kg value has been reported?
Response line: 49.3

Prompt line: Suppose we examine the compound O=C1CCC(N2C(=O)c3ccccc3C2=O)C(=O)N1 (stereo unspecified) [THALIDOMIDE] ; what inhibition in vivo at 100 µmol/kg value has been reported?
Response line: 25.2

Prompt line: Suppose we examine the compound `CC(C)c1ccc(/C=N/NC(=O)c2nc3ccccc3nc2-c2ccccc2)cc1` ; what inhibition in vivo at 100 µmol/kg value has been reported?
Response line: 47.5

Prompt line: Suppose we examine the compound `COc1cc(/C=N/NC(=O)c2cnccn2)cc(OC)c1OC` ; what inhibition in vivo at 100 µmol/kg value has been reported?
Response line: 70

Prompt line: Suppose we examine the compound `O=C(N/N=C/c1ccncc1)c1cnccn1` ; what inhibition in vivo at 100 µmol/kg value has been reported?
Response line: 32.3

----------
Test system: Mus musculus
Protocol summary: Antinociceptive activity in Swiss mouse assessed as inhibition of acetic acid-induced abdominal constrictions at 100 umol/kg, po administered 40 mins before acetic acid challenge measured for 25 mins relative to control
Format: functional
Condition: Abdomen
Answer each item with its documented inhibition in vivo at 100 µmol/kg.
// unit must come after the numeric part

Prompt line: Suppose we examine the molecule `COc1cc(/C=N/NC(=O)c2cnccn2)ccc1O` ; what inhibition in vivo at 100 µmol/kg value has been reported?
Response line: 47%

Prompt line: Suppose we examine the molecule `O=C(N/N=C/c1ccncc1)c1cnccn1` ; what inhibition in vivo at 100 µmol/kg value has been reported?
Response line: 40.4%

Prompt line: Suppose we examine the molecule `O=C(N/N=C/c1ccc(-c2ccccc2)cc1)c1cnccn1` ; what inhibition in vivo at 100 µmol/kg value has been reported?
Response line: 57.3%

Prompt line: Suppose we examine the molecule COc1ccc2c(c1)c(CC(=O)O)c(C)n2C(=O)c1ccc(Cl)cc1 [INDOMETHACIN] ; what inhibition in vivo at 100 µmol/kg value has been reported?
Response line: 73.1%

Prompt line: Suppose we examine the molecule `O=C(N/N=C/c1ccc(C(F)(F)F)cc1)c1cnccn1` ; what inhibition in vivo at 100 µmol/kg value has been reported?
Response line: 54.5%

Prompt line: Suppose we examine the molecule `CC(C)c1ccc(/C=N/NC(=O)c2cnccn2)cc1` ; what inhibition in vivo at 100 µmol/kg value has been reported?
Response line: 67.6%

Prompt line: Suppose we examine the molecule `O=C(N/N=C/c1c2ccccc2cc2ccccc12)c1cnccn1` ; what inhibition in vivo at 100 µmol/kg value has been reported?
Response line: 33.6%

Prompt line: Suppose we examine the molecule `CC(C)(C)c1cc(/C=N/NC(=O)c2cnccn2)cc(C(C)(C)C)c1O` ; what inhibition in vivo at 100 µmol/kg value has been reported?
Response line: 71.6%

Prompt line: Suppose we examine the molecule `O=C(N/N=C/c1ccc(F)cc1)c1cnccn1` ; what inhibition in vivo at 100 µmol/kg value has been reported?
Response line: 74.5%

Prompt line: Suppose we examine the molecule `O=C(N/N=C/c1ccccc1O)c1cnccn1` ; what inhibition in vivo at 100 µmol/kg value has been reported?
Response line: 73.1%

Prompt line: Suppose we examine the molecule `COc1ccc(/C=N/NC(=O)c2cnccn2)cc1OC` ; what inhibition in vivo at 100 µmol/kg value has been reported?
Response line: 73.6%

Prompt line: Suppose we examine the molecule `COc1cc(/C=N/NC(=O)c2cnccn2)cc(OC)c1OC` ; what inhibition in vivo at 100 µmol/kg value has been reported?
Response line: 97.1%

Prompt line: Suppose we examine the molecule `O=C(N/N=C/c1ccc2ccccc2c1)c1cnccn1` ; what inhibition in vivo at 100 µmol/kg value has been reported?
Response line: 68.4%

Prompt line: Suppose we examine the molecule `O=C(N/N=C/c1ccc(O)cc1)c1cnccn1` ; what inhibition in vivo at 100 µmol/kg value has been reported?
Response line: 61.4%

Prompt line: Suppose we examine the molecule `O=C(N/N=C/c1ccc([N+](=O)[O-])cc1)c1cnccn1` ; what inhibition in vivo at 100 µmol/kg value has been reported?
Response line: 40.4%

Prompt line: Suppose we examine the molecule `CC(C)c1ccc(/C=N/NC(=O)c2nc3ccccc3nc2-c2ccccc2)cc1` ; what inhibition in vivo at 100 µmol/kg value has been reported?
Response line: 77.3%

Prompt line: Suppose we examine the molecule `O=C(N/N=C/c1ccccn1)c1cnccn1` ; what inhibition in vivo at 100 µmol/kg value has been reported?
Response line: 75.5%

Prompt line: Suppose we examine the molecule `O=C(N/N=C/c1ccc2c(c1)OCO2)c1cnccn1` ; what inhibition in vivo at 100 µmol/kg value has been reported?
Response line: 78.2%

Prompt line: Suppose we examine the molecule O=C1CCC(N2C(=O)c3ccccc3C2=O)C(=O)N1 (stereo not drawn) [THALIDOMIDE] ; what inhibition in vivo at 100 µmol/kg value has been reported?
Response line: 73.3%

Prompt line: Suppose we examine the molecule `O=C(N/N=C/c1cc(=O)c2ccccc2o1)c1cnccn1` ; what inhibition in vivo at 100 µmol/kg value has been reported?
Response line: 86.3%

Prompt line: Suppose we examine the molecule Cc1ccc(-c2cc(C(F)(F)F)nn2-c2ccc(S(N)(=O)=O)cc2)cc1 [CELECOXIB] ; what inhibition in vivo at 100 µmol/kg value has been reported?
Response line: 56.9%

Prompt line: Suppose we examine the molecule `O=C(N/N=C/c1ccccc1)c1cnccn1` ; what inhibition in vivo at 100 µmol/kg value has been reported?
Response line: 42.4%

Prompt line: Suppose we examine the molecule `COc1ccc(/C=N/NC(=O)c2cnccn2)cc1O` ; what inhibition in vivo at 100 µmol/kg value has been reported?
Response line: 64.8%
